- tested-on: HDAC2 (Homo sapiens, UniProt Q92769)
- Sequence (Q92769 whole entry): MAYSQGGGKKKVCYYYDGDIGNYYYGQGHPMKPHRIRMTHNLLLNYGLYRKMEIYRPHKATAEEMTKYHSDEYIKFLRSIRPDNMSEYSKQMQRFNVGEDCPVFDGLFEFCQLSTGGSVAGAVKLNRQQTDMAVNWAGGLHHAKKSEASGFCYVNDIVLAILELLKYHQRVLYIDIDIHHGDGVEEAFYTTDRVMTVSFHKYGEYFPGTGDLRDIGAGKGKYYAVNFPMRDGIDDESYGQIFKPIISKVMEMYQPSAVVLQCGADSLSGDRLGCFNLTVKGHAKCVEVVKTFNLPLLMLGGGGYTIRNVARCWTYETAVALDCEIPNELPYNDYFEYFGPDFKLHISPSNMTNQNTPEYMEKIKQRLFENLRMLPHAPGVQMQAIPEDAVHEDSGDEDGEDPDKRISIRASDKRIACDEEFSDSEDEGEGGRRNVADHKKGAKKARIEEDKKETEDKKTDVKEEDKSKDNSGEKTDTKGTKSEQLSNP

- test-smiles: "CCCCCCCC(=O)SCC/C=C/[C@@H]1CC(=O)NCc2nc(cs2)C2=N[C@@](C)(CS2)C(=O)N[C@@H](C(C)C)C(=O)N1"
  IC50: "> 3000 nM"

From: paper PMC2880701
